Hey, just so you know, these numbers are from ChEMBL document CHEMBL1157539.

# System: Plasmodium falciparum
# procedure summary: GSK_TCMDC: Inhibition of Plasmodium falciparum 3D7 in whole red blood cells, using parasite LDH activity as an index of growth. Test compounds present at 2uM
# Format: functional
Inhibition less than 90% is Satisfied; Inhibition greater than or equal to 90% is Not satisfied.

Please determine if O=C(Nc1ccc(Cl)cc1)c1ccc(S(=O)(=O)NCC2CCN(CC3CCCCC3)CC2)cc1.O=C(O)C(F)(F)F is below 90% in terms of Inhibition. Not satisfied

Determine whether this compound shows Inhibition lower than 90% (ties excluded): CCN(CC)CCCNC(=O)/C(=C/C=C/c1cc2cc(Cl)c(Cl)cc2[nH]1)OC.Cl Satisfied

Given the entry COc1ccc(Cc2nc(/N=C(\N)Nc3ccccc3)ccc2OC)cc1 , would its reported Inhibition be below 90%? Not satisfied

Given CS(=O)(=O)CCNCc1cccc(-c2ccc3c(Nc4ccc(Oc5cccnc5)cc4)ccnc3c2)c1 , is recorded Inhibition strictly lower than 90%? Not satisfied

Strictly below 90%: is that where Inhibition of COc1ccc2nc(-c3cc(-c4ccc(NC(C)=O)cc4)cnc3N)[nH]c2c1 sits? Not satisfied

Regarding COCCOc1nc(N)nc2ncc(Cc3cc(OC)ccc3OC)c(C)c12 , kindly confirm whether its Inhibition is beneath 90%. Not satisfied

Hello, I'm reviewing records and need to know if Inhibition of Cc1nc(C)c(-c2ccc(-c3ccc(F)cc3)cc2)c(O)c1Br is below 90%. Could you check? Not satisfied

Does this compound meet the criterion Inhibition < 90%? CCc1c[nH]c2c(N3CCCC3=O)cc(C(=O)N[C@@H](Cc3ccccc3)[C@H](O)CNC(C)(C)c3cccc(OC)c3)cc12 Not satisfied

Strictly below 90%: is that where Inhibition of CCn1ccc2c(N3CCCC3=O)cc(C(=O)N[C@@H](Cc3ccccc3)[C@H](O)CNC(C)(C)CCCC(C)C)cc21 sits? Not satisfied

Is 90% strictly greater than the compound's reported Inhibition? compound: COc1ccccc1C(=O)Nc1cccc(N2CCC(NCc3ccc(-n4cccn4)cc3)CC2)c1 Satisfied

For this compound, is Inhibition lower than 90%? Cc1ccc(NC(=O)N2CCN(CCCCCNC(=O)/C=C/c3ccc(Cl)c(Cl)c3)CC2)cc1C Not satisfied

I'd appreciate it if you could check whether Cc1cc(OCCCN2CCCCC2)ccc1NC(=O)COc1ccc(Cl)cc1C(=O)c1cc(C#N)cc(C(F)(F)F)c1 has Inhibition smaller than 90%. Satisfied

I wonder whether Cl.Fc1cc(CN2CCCC2)ccc1OCCCN1CCN(c2cccc(Cl)c2Cl)CC1 has Inhibition below 90%. Can you tell? Satisfied

# TODO verify Inhibition < 90% strictly for this compound: C[C@@H](CC1CCCCC1)OC(=O)N(C)[C@@H]1CCN(C#N)C1 Not satisfied

====

# System: HepG2
# procedure summary: GSK_TCMDC: Percent inhibition of human HepG2 cell line. Test compounds present at 10uM.
# Assay type: functional
Answer each item with its documented Inhibition.
Give your result in % as a bare value.

# input molecule: Nc1c(Cl)cc(C(O)CNCCCCCOCCCc2ccc(O)c3ncccc23)cc1Cl.O=C(O)/C=C/C(=O)O (stereo not drawn) ; wanted: its Inhibition 65

I would be grateful if you could share the reported Inhibition for CC(C)OC(=O)c1ccc(NC(=O)N[C@@H](Cc2ccc(O)cc2)C(=O)NC2CCC(CCN3C4CCC3c3ccccc34)CC2)cc1.O=C(O)C(F)(F)F (stereo partly drawn) . 3

Look up Inhibition for this molecule: Nc1nc(N)c2c(CCc3ccc4ccccc4c3)cccc2n1 56

# input molecule: O=C(NCCCCN1CCC(c2cccc3ccccc23)CC1)c1ccc(NC(=O)c2ccc(Cl)cc2)cc1 ; wanted: its Inhibition 20

Look at this molecule and give its reported Inhibition. CCCN1CCN(CCNC(=O)c2cccc(Nc3nccc(Nc4ccc(Oc5ccccc5)cc4)n3)c2)CC1 56

Can you share its Inhibition? I mean this molecule: O=CO.c1ccc(-c2ccc(CNCCCNc3nc4ccccc4[nH]3)cc2)cc1 20

What measured Inhibition goes with CCC(NC[C@@H](O)[C@H](Cc1ccccc1)NC(=O)c1cc(C2CCCC2)cc(N2CCCC2=O)c1)c1cccc(Cl)c1.Cl (stereo partly drawn) ? 7

Look up Inhibition: Cc1ccc(CN2CCCN(Cc3cccc(C(=O)Nc4ccc(C(C)(C)C)cc4)c3)CC2)s1.O=C(O)C(F)(F)F 31

====

# Tested on: Plasmodium falciparum
# procedure summary: GSK_TCMDC: Inhibition of Plasmodium falciparum Dd2 in whole red blood cells, using parasite LDH activity as an index of growth. Test compounds present at 2uM
# Format: functional
recorded endpoint: Inhibition (%)
# output: bare number, implied unit %

Reported Inhibition for CCN(CC)Cc1cccc(-c2cc3c(-c4ccc(C(=O)O)c(C(C)C)c4)ccnc3[nH]2)c1OC.O=C(O)C(F)(F)F : what is it? 99

Look up Inhibition for this compound: Cc1cc(OCCCN2CCCCC2)ccc1NC(=O)COc1ccc(Cl)cc1C(=O)c1cc(C#N)cc(C(F)(F)F)c1 7

// query Inhibition value for entry COc1cccc(CNc2noc(-c3c(-c4ccccc4)noc3C)n2)c1OC 86

# input compound: O=C(Nc1cccc(-c2nn3ccccc3c2-c2ccnc(Nc3ccc(C(=O)N4CCOCC4)cc3)n2)c1)c1c(F)cccc1F ; wanted: its Inhibition 97

Dear colleague, I am looking for the recorded Inhibition of the following compound: COc1ccc(C(C(=O)NC2CCN(C[C@H](O)c3ccnc4ccc(OC)cc34)CC2)N2CCN(c3ccc([N+](=O)[O-])cc3)CC2)cc1 (some centres undefined) 80

Fill blank: measured Inhibition of the compound COc1ccc(-c2nc3cccnc3n2CC(=O)Nc2c(C)cc(C)cc2C)c(OC)c1 is ____. 21

Which Inhibition value belongs to O=S(=O)(Nc1cccc(CCN2CCCCC2CCN2CCCC2)c1)c1ccc(Oc2ccccc2)cc1 (centres undefined) ? 1

Need Inhibition of O=C(NOCCOc1ccccc1)c1ccccc1 , thanks. 0

Please give the measured Inhibition for this compound: CC(C)(C)c1ccc(CN2CCCCC(NC(=O)c3cc(-c4ccccc4F)cs3)C2)cc1.O=C(O)C(F)(F)F (centres undefined) 99

====

# System: Plasmodium falciparum
# procedure summary: GSK_TCMDC: Inhibition of Plasmodium falciparum Dd2 in whole red blood cells, using parasite LDH activity as an index of growth. Test compounds present at 2uM
# Assay type: functional
// assign yes (1) if Inhibition falls strictly below 90%, else no (0) (ties count as no (0))

Given the entry COC(=O)c1ccc2c(-c3nc4ccc(OC)cc4[nH]3)c[nH]c2c1 , would its reported Inhibition be below 90%? yes (1)

Lab note: confirm whether the reported Inhibition for this molecule is below 90%, equality not counting. molecule: O=C(/C=C/c1ccc(Cl)c(Cl)c1)NCCCCCN1CCC(NC(=O)Nc2ccc(Cl)c(Cl)c2)CC1 yes (1)

Threshold test, Inhibition < 90%: N#Cc1cccc(Nc2nccc(NCC(O)c3ccccc3C(F)(F)F)n2)c1 (stereo not drawn) yes (1)

Bench note: check whether O=C(Nc1cc(C(F)(F)F)cc(C(F)(F)F)c1)NC(CCCN1CCC2(CC1)OCc1ccccc12)c1ccc(Cl)c(Cl)c1 (stereo not drawn) shows Inhibition below 90% yes (1)

Dear colleague, could you confirm whether Inhibition of CC1(C)NC(N)=NC(=N)N1OCc1cc(Cl)c(Cl)cc1CON1C(=N)N=C(N)NC1(C)C falls below 90%? Thanks. no (0)

Please check: Inhibition for O=CO.c1ccc(CCNc2ccnc(Nc3ccc4cn[nH]c4c3)n2)cc1 , strictly under 90% or not? no (0)

Report whether reported Inhibition is lower than 90% (strictly) for O=C(Nc1cc(C(F)(F)F)cc(C(F)(F)F)c1)N1CCC(CCN2CCC(c3c[nH]c4ccccc34)CC2)CC1 yes (1)

Below 90% on Inhibition? Entry O=C(CCc1c[nH]cn1)Nc1cccc(-c2ccc(-c3nc4ccccc4[nH]3)s2)c1 yes (1)

Regarding CCOC(=O)C(NC(=O)Cc1ccccc1)C(C)C (stereo not drawn) , kindly confirm whether its Inhibition is beneath 90%. no (0)

Find out if reported Inhibition for O=C(Nc1ccc(F)cc1)NC1CCN(CCCCCNC(=O)C2CC2c2ccc(Cl)c(Cl)c2)CC1 (stereo not drawn) is less than 90% yes (1)

Inhibition under 90%? Item: C[C@H](Cc1ccc(OCCCCCCOc2ccc(C[C@@H](C)N[C@H](C)c3ccccc3)cc2)cc1)NC[C@H](O)c1cccc(Cl)c1.Cl no (0)

Field: below-cutoff. Rule: recorded Inhibition strictly less than 90%. Subject: Fc1ccc(NC(S)=NN=Cc2ccccn2)cc1 yes (1)

# check: Inhibition < 90% for COc1cc(Cc2cnc(N)nc2N)cc(OCCCCCCN2C(=O)c3ccccc3C2=O)c1OC yes (1)

Confirm or reject: Inhibition of COc1cccc(CN2CCCC(COC(c3ccc(F)cc3)c3ccc(F)cc3)C2)c1O (stereo not drawn) lies strictly below 90% no (0)

Determine if CCN(CC)CCOc1c(Cl)cc(Cl)cc1CNCCCNc1cc(=O)c2ccccc2[nH]1 shows Inhibition strictly lower than 90%. yes (1)

Problem: For the molecule CC(C)C[C@H](NC(=O)c1cc2ccccc2s1)C(=O)N[C@H]1CCN(Cc2ccc(OC[C@@H]3CCCN3C)c3ccccc23)C1.O=C(O)C(F)(F)F , is Inhibition under 90%? no (0)

Hello, is Inhibition of the following molecule strictly smaller than 90%? O=C(O)C(F)(F)F.O=S(=O)(Nc1ccc(-c2ccc(CN3CCCC3)cc2)cc1)c1cccc2cccnc12 yes (1)
